biological target: Cannabinoid receptor 2 (Homo sapiens); experiment: Displacement of [3H]CP-55940 from human CB2 receptor expressed in HEK293 cell membranes; settings: read-out: Ki
Sequence (P34972 whole entry): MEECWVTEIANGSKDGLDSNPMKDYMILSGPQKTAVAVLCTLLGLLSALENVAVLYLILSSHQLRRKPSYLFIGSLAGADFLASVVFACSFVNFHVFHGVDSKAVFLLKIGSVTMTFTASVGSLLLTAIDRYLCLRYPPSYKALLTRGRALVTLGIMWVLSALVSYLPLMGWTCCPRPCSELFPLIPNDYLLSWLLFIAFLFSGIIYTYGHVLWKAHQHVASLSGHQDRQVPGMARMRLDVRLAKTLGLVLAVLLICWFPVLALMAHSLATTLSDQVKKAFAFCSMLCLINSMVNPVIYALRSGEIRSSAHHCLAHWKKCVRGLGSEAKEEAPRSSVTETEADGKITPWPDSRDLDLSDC
pKi: −log10 of the molar value.
Note to self: values exactly at 5 are Met. So pKi at or above 5 is Met, below is Not met.

compound	cat
CC1(C)Oc2cc(C(=O)N3C4CC5CC3CC(C4)O5)cc(O)c2[C@@H]2C[C@@H](O)CC[C@H]21	Not met
CC1(C)Oc2cc(C(=O)NC34CC5CC(CC(C5)C3)C4)cc(O)c2[C@@H]2C[C@@H](O)CC[C@H]21	Not met
CC1(C)Oc2cc(CNC3C4CC5CC(C4)CC3C5)cc(O)c2[C@@H]2C[C@H](O)CC[C@H]21 (stereo partly drawn)	Not met
CC1(C)Oc2cc(CN3C4CC5CC3CC(C4)O5)cc(O)c2[C@@H]2C[C@@H](O)CC[C@H]21	Met
CC1(C)Oc2cc(C(=O)NC3C4CC5CC(C4)CC3C5)cc(O)c2[C@@H]2C[C@@H](O)CC[C@H]21 (stereo partly drawn)	Not met
CC1(C)Oc2cc(C(=O)NC3C4CC5CC(C4)CC3C5)cc(O)c2[C@@H]2C[C@H](O)CC[C@H]21 (stereo partly drawn)	Met
CC1(C)Oc2cc(CNC34CC5CC(CC(C5)C3)C4)cc(O)c2[C@@H]2C[C@@H](O)CC[C@H]21	Not met
